Value source: ChEMBL document CHEMBL4888484

# Tested on: Plasmodium falciparum
# assay.notes: Confirmatory screen in NF54 pLDH assay, in single point, at 2uM, 72h
# Type: functional, Erythrocyte
# reported.conditions: timepoint 72 hour
About 410 (8.5%) of roughly 4,800 compounds showed an effect of 50% or more. The sample holds strong results, similar compounds and a random draw of the others, so the mix is not that of the screen.
value.kind: % Inhibition (%)
A number alone suffices; assume %.

Please fill in: % Inhibition reported for "COc1ccc(-c2cnn3c(-c4ccccn4)ccnc23)cc1OC" = 4

Short answer for "COc1ccc(-c2c(-c3cccc(OC)c3)[nH]c3c2c(=O)[nH]c(=O)n3C)cc1" : % Inhibition was 97

Per the record, "C[C@H]1Cc2cc(C(=O)NCc3nc(C(F)(F)F)n[nH]3)ccc2O1" has % Inhibition of 10

% Inhibition in this record for "O=c1[nH]c(=O)n(Cc2nc(-c3ccco3)no2)cc1Cl" : 3

% Inhibition for "Cc1cc(CN2C(=O)N[C@@]3(CCCCc4ccccc43)C2=O)no1" is 6

Record "CCc1ccc(CN2CCC[C@H](c3ncc[nH]3)C2)nc1" , field % Inhibition: 52

Kindly note the recorded % Inhibition for O=S1(=O)CCC(NCCC2CCCO2)c2cc(F)c(F)cc21 (centres undefined) , which is -1

Input "Cc1cc(C)cc(-c2cc3nc(C)cc(N4CCC(C(=O)Nc5ccc(C)c(Cl)c5)CC4)n3n2)c1" . Output % Inhibition: -12

Reported % Inhibition for "CC(=O)c1cc(-c2cc(O)cc(CC[C@H]3CCCCN3)c2)ccc1O" was 85

Record "Cc1oc(-c2ccn[nH]2)cc1S(=O)(=O)Nc1cccc(Cl)c1" , field % Inhibition: 4

"O=c1[nH]c2cc(Cl)c(S(=O)(=O)Cl)cc2[nH]1" yielded % Inhibition of 6

Reported % Inhibition of "Cc1cc(S(=O)(=O)NC[C@H]2CCCCN2)sc1C" : -6

Entry "Cc1ccc(Cl)cc1N1CCN(C(=O)c2ccc3noc(-c4ccc(F)cc4)c3c2)CC1" , % Inhibition reported as -13

# % Inhibition of "Clc1ccc(Cl)c(-c2ccc(CNn3cnnc3)o2)c1" = 11

Recorded result, "COc1ccc(Nc2nnc(-c3ccc(NC(=O)C(=O)NCCCn4ccnc4)cc3)s2)cc1" , % Inhibition: 76

% Inhibition for "Cc1cc(-c2cc(O)cc(CC[C@H]3CCCCN3)c2)ccn1" is 91

"COc1ccc2c(O)cc(-c3ccccc3)nc2c1" has a reported % Inhibition of 1

"COc1ccc(-c2cc3nn(CC(=O)NCCC(C)C)c(=O)n3c(C)n2)cc1" yielded % Inhibition of 1

Query "O=C(Cn1c(=O)n(-c2cc(F)cc(F)c2)c(=O)c2sccc21)NCc1ccc(F)cc1F" yields % Inhibition of -2

GET /value?item= "O=C(Nc1ccc(Cl)cc1)n1c(=S)oc2cc(Br)ccc21" &field=% Inhibition returns 2

Query "COc1ccc(-c2nccn3cc(C(=O)NCCc4ccncc4)nc23)cc1" yields % Inhibition of 5

Value of % Inhibition reported for the compound "NC(=O)[C@H]1CCCN(c2ccnc(C(=O)NCc3ccccc3)c2)C1" is 4

Sample "O=S(=O)(Cc1cc(Cl)cc(Cl)c1)NCCCCn1ccnc1" ; % Inhibition observed: -11

The value of % Inhibition measured for the compound "Cc1nc(N2CCC(c3nc(-c4ccccc4)no3)CC2)c2c(C)noc2n1" turned out to be 9

Memo: "O=C1CCC(C(=O)N2CCC[C@H]2c2ccncc2)=NN1c1ccccc1" , reported % Inhibition: -11

"O=C(NCc1ccco1)c1nc(-c2ccncc2)cs1" yielded % Inhibition of 10

Value of measured % Inhibition for the entry "Cc1cc2nc(C(=O)NC3CCN(Cc4ccccc4)CC3)c(=O)n(C)c2cc1C" : -6

Value of % Inhibition reported for the compound "Cc1nn(-c2ccccc2)c2c1[C@@H](c1ccc(C(F)(F)F)cc1)N(c1ccccc1)C(=O)N2" is 9

Sure, the documented % Inhibition for "COc1cccc(-c2cc(C(=O)N3CCCN(C(=O)c4cc(-c5cccc(OC)c5)nc5ccccc45)CC3)c3ccccc3n2)c1" is -26

compound "CN(C)CCN(C)c1ccc(Br)cc1NCc1cncn1C" , % Inhibition observed: 39

Note to self: % Inhibition recorded for "COc1ccc(S(=O)(=O)N(c2onc(C)c2Cl)S(=O)(=O)c2ccc(OC)c(OC)c2)cc1OC" was 4

The reported value for "Nc1ccnc(OCc2ccccc2)n1" in terms of % Inhibition is -16

GET /value?item= "OCC#Cc1ncc(C(F)(F)F)cc1Cl" &field=% Inhibition returns -19

GET /value?item= "Cc1nc(-c2ccccc2)cc2nn(CC(=O)NC3CCCCC3)c(=O)n12" &field=% Inhibition returns -8

Sure, the documented % Inhibition for "CCc1nnc2ccc(S(=O)(=O)N(CC#N)c3ccccc3)cn12" is -16

Kindly note the recorded % Inhibition for "O=C(CN1CCN(Cc2cccc(Cl)c2)C1=O)N1CCN(c2ccccc2)CC1" , which is 4

What the record says about "O=C(CN1C(=O)C[C@H](Cc2ccc(F)cc2)C1=O)N1CCNC1=O" : % Inhibition is 9

Per the record, "CCc1ccc(C(=O)N2CC[C@H](CC(=O)NCc3ccccc3)C2)cc1" has % Inhibition of 10

compound "Cc1ccc(-c2nn(Cn3nc(C)c(Cl)c3C)c(-c3ccc(C)cc3)c2Br)cc1" , % Inhibition observed: -12

Query "CCc1c(-c2nc(CCN(C)C(=O)c3ccoc3)no2)[nH]c2ccc(C)cc12" yields % Inhibition of -19

Record "O=C(Cc1ccc(F)cc1)N[C@H](c1ccccc1)C1CC1" . Reported % Inhibition: 2

Per the record, "Cc1ccc(N2C(=O)c3ccccc3[C@H]2Nc2nc(C)cs2)nc1" has % Inhibition of -16

Entry "NC(=O)COCC(=O)Nc1ccccc1" , % Inhibition reported as -9

Kindly note the recorded % Inhibition for "O=C(N[C@@H](CN1CCCC1)c1ccccc1)N1CCC(c2ccn[nH]2)CC1" , which is 43

----------
# Tested on: Plasmodium falciparum
# assay.notes: Confirmatory screen in NF54 pLDH assay, in single point, at 2uM, 72h
# Format: functional, Erythrocyte
# reported.conditions: timepoint 72 hour
Out of some 4,800 compounds screened, about 410 (8.5%) showed an effect of 50% or more. The sample holds strong results, similar compounds and a random draw of the others, so the mix is not that of the screen.
So I've got a bunch of compounds here, and I need their % Inhibition values.
Number in %, nothing else.

Documented % Inhibition of "COCCCNC(=O)C1CCN(c2c(C)n(-c3ccccc3)c(=O)n(CC(C)C)c2=O)CC1" : 5

Reported % Inhibition of "Cc1nn(C(C)(C)C)c2nc(C3CC3)cc(C(=O)N(C)c3ccccc3)c12" : 87

Just so you know, measured % Inhibition for "COc1ccc(CNc2nc(-c3nnc(-c4ccccc4)o3)nc3ccccc23)cc1" came out at -3

Sample "CC(C)N1CCC(NC(=O)NCC2CCCCCCC2)CC1" ; % Inhibition observed: 6

Kindly note the recorded % Inhibition for "CNc1nc(Nc2ccc3c(c2)OCCO3)nc2ccccc12" , which is 103

Note to self: % Inhibition recorded for "C[C@H](Nc1nc(N2CCCCC2)nc2ccccc12)c1ccccc1" was -6

Value of % Inhibition reported for the compound "O=C1[C@@H]2CCCN2C(=O)N1Cc1ccnc(OC2CCOCC2)c1" is -11

Value of % Inhibition reported for the compound O=C(CN1CCOC2CCCCC21)N1CCOC2CCCCC21 (stereo not drawn) is -9

response.value for C=C1C(C)C2C(Cc3c[nH]c4ccccc34)NC(=O)C23C(=O)CC(O)C(O)CC(C)C/C=C/C3C1O (stereo not drawn) (field: % Inhibition) = 65

Consider "COc1c[nH]c(C(=O)NC2CCN(Cc3ccccc3)CC2)cc1=O" . Its measured % Inhibition is 1

Note to self: % Inhibition recorded for "c1ccc(CCNc2nc(-c3ccccn3)cs2)cc1" was 31

// sample "COc1cccc(-c2nc3n(c2C(=O)Nc2ccccc2C#N)CCS3(=O)=O)c1" , its % Inhibition was 9

get_value(item= "Cc1nn(CCOc2ccccc2)c(=O)n1-c1ccc(C(C)C)cc1" , readout=% Inhibition) returns 14

The compound listed as "CNC[C@H]1CCCN1C(=O)c1ccc(-c2noc(C(F)(F)F)n2)cc1" shows % Inhibition equal to 12

Briefly, % Inhibition measured for "COc1ccc(N2CCN(Cc3cc(-c4ccc(Cl)cc4)no3)CC2)cc1" : -19

Entry "CCOC(=O)[C@@H]1C(=O)Nc2cc(OC)ccc21" — recorded % Inhibition = 9

% Inhibition in this record for "Cc1nn(Cc2ccccc2)c2nc(C3CC3)cc(C(=O)N3CCOCC3)c12" : 1

Recorded result, "Cc1cc(C)c(NC(=O)CN(C)C(=O)NCc2ccco2)c(C)c1" , % Inhibition: -8

"CCc1ccccc1Nc1nc(C)c(C(=O)NCc2cccnc2)s1" has a reported % Inhibition of -22

% Inhibition measured on "CN(CCN)c1ccc(Br)cc1C#N" = 9

# % Inhibition (compound: "Cc1cc(C(=O)N[C@H]2CCS(=O)(=O)C2)nc(N(C)C)n1" ) is 2

Notebook: "Cc1ccc(-c2nc3ncccn3c2Nc2ccc3c(c2)OCCO3)o1" , % Inhibition read as -4

Noted for "Cc1ccc2nc(O)c3nnc(C)n3c2c1" : its % Inhibition reads 15
